Value source: paper PMC3424550

Target: E. coli RNAP TEC (Escherichia coli, UniProt P0A8T7+P0A8V2)
Sequence (P0A8T7 whole entry): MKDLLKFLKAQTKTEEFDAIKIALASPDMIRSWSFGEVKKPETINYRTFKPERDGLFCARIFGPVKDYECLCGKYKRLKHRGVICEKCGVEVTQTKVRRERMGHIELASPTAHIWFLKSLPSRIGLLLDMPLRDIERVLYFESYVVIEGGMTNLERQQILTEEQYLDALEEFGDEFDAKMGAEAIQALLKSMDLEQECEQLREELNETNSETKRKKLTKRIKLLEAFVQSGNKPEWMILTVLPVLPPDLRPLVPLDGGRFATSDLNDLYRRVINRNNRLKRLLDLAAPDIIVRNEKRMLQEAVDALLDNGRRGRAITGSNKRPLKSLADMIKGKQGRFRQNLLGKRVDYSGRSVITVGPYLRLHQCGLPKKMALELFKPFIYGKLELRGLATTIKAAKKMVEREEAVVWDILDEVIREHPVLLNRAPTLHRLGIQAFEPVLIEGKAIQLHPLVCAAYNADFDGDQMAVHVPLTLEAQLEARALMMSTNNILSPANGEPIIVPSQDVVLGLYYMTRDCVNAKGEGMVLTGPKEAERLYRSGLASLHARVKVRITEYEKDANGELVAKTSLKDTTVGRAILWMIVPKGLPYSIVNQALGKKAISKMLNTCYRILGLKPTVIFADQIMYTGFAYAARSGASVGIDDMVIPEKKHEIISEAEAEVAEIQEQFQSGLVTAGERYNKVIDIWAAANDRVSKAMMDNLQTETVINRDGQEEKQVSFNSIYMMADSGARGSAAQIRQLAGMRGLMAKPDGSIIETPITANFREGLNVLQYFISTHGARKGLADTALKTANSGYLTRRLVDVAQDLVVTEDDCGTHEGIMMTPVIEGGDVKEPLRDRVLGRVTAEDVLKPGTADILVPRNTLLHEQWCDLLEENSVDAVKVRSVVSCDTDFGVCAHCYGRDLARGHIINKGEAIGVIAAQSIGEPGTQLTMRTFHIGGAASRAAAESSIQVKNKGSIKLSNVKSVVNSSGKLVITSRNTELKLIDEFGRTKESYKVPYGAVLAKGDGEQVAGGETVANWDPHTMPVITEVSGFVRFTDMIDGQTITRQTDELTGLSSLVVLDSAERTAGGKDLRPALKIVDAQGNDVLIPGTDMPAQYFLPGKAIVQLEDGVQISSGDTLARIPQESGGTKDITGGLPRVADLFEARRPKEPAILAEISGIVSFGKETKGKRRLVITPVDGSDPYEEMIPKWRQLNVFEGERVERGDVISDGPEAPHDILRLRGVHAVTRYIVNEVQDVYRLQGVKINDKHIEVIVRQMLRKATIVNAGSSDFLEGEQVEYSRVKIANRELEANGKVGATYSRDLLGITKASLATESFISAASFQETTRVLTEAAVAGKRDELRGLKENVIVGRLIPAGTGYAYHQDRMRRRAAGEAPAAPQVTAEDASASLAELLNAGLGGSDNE
Sequence (P0A8V2 whole entry): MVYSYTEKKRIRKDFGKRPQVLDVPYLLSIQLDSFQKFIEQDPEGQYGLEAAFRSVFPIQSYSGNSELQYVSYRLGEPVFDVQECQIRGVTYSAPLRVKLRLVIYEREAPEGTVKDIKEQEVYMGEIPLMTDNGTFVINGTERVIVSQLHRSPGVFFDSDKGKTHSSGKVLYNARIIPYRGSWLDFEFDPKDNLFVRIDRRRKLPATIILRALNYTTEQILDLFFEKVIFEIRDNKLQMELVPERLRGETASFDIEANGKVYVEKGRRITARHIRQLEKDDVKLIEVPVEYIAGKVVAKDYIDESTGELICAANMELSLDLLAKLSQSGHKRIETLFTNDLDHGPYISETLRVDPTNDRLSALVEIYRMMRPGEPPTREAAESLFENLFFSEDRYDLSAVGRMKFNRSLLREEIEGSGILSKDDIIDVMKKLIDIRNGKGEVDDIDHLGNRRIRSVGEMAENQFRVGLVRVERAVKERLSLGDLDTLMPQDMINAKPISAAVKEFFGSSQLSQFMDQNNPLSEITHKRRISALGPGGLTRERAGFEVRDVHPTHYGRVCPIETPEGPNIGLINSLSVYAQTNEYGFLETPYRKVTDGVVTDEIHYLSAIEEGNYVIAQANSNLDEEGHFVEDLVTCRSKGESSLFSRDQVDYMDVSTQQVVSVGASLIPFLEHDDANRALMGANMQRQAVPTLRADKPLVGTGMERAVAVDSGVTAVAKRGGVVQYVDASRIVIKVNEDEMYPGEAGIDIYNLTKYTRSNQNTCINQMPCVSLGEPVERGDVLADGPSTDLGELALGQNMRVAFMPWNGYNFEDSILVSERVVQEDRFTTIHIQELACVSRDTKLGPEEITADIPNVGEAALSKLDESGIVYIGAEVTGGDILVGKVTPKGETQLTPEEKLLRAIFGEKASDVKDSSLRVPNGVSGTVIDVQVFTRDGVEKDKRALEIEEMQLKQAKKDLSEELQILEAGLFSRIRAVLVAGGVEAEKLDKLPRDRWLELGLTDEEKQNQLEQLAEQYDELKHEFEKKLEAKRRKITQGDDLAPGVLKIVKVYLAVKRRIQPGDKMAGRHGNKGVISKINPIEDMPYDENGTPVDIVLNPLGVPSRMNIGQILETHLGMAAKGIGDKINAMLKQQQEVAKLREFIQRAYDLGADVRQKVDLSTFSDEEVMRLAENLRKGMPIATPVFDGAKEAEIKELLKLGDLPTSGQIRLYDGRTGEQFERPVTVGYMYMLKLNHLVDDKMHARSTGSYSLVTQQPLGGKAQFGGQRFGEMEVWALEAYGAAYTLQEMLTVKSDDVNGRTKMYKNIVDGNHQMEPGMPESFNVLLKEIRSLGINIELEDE
Sequence (P0A7Z4 whole entry partner): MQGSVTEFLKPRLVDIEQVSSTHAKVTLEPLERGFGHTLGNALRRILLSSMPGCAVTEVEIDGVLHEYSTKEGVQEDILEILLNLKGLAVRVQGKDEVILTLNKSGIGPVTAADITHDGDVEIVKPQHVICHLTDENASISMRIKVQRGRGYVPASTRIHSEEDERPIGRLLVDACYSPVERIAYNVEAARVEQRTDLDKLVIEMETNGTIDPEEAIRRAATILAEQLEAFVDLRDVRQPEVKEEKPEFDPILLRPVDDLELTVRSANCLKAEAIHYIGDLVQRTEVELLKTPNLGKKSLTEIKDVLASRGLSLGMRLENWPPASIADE
Sequence (P0A800 whole entry partner): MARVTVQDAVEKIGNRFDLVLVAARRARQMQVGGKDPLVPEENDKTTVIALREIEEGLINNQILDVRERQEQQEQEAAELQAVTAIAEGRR
Experiment: Time-resolved nucleotide addition
Assay type: biochemical
Conditions: i − 7 6-MI TECs; 200 µM NTP, 25°C
Kindly state nucleotide addition, half-life for each of the entries shown.

Give nucleotide addition, half-life for all compounds that follow.
1. O=c1ccn([C@@H]2O[C@H](COP(=O)(O)O)[C@@H](O)[C@H]2O)c(=O)[nH]1 [UMP]
2. Nc1nc2c(ncn2[C@@H]2O[C@H](COP(=O)(O)O)[C@@H](O)[C@H]2O)c(=O)[nH]1 [GMP]

1. ~0.02 s
2. ~0.02 s

Give nucleotide addition, half-life for all compounds that follow.
1. Nc1ccn([C@@H]2O[C@H](COP(=O)(O)O)[C@@H](O)[C@H]2O)c(=O)n1 [CMP]
2. Nc1ncnc2c1ncn2[C@@H]1O[C@H](COP(=O)(O)O)[C@@H](O)[C@H]1O [AMP]

["~0.008 s", "~0.02 s"]
